Listing: BAF3-FGFR1 (MIN IL3 pIC50) of selected compounds
# system tested: Ba/F3-FGFR1-transfected cells (Homo sapiens, UniProt P11362, cells depend on it, form not given)
# Construct: other: minus IL3; 24 hours, Alamar Blue
# Sequence (P11362 whole entry, change not shown): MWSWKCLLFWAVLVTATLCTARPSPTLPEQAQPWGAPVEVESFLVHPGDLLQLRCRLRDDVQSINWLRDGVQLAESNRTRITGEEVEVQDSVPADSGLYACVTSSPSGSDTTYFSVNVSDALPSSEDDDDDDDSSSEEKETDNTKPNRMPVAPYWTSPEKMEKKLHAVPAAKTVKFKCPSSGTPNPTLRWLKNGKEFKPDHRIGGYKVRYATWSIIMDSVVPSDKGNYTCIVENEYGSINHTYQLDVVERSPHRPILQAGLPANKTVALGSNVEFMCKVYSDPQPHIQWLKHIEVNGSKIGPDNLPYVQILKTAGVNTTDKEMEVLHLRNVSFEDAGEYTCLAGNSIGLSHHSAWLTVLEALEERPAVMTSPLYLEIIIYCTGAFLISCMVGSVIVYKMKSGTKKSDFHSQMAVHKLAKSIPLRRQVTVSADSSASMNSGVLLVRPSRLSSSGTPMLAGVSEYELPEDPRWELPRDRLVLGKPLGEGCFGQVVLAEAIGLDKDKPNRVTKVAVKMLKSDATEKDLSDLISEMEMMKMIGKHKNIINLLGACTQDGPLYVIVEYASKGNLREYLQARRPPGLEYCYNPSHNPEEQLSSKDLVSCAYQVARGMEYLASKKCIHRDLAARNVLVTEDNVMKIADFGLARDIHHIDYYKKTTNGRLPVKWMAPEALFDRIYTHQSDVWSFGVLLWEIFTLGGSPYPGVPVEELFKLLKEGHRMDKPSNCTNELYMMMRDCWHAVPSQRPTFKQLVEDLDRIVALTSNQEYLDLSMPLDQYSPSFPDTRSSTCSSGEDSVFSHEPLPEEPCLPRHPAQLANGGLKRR
# assay name: Ba/F3-FGFR1 (minus IL3 or plus IL3) cellular proliferation assay, Alamar Blue
# Assay type: cell-based
# experimental conditions: minus IL3, 24 hours
Please state the value as a number alone, without comment.

COc1cc(OC)cc(N(Cc2ncccn2)c2ccc3ncc(-c4cnn(C)c4)cc3c2)c1 [Compound 8]: 6.27
COc1cc(OC)cc(N(Cc2ncc[nH]2)c2ccc3ncc(-c4ccncc4)cc3c2)c1 [Compound 57]: 6.75

Prompt line: Query: BAF3-FGFR1 (MIN IL3 pIC50); subject: COc1cc(OC)cc(N(CC(O)C(F)(F)F)c2ccc3ncc(-c4cnn(C)c4)cc3c2)c1 (single isomer, unassigned) [Compound 25]
Response line: 6.57

* * *

Listing: log10 of IC50 of selected molecules
# system tested: KDR (h) (Homo sapiens, UniProt P35968)
# Sequence (P35968 20-1356): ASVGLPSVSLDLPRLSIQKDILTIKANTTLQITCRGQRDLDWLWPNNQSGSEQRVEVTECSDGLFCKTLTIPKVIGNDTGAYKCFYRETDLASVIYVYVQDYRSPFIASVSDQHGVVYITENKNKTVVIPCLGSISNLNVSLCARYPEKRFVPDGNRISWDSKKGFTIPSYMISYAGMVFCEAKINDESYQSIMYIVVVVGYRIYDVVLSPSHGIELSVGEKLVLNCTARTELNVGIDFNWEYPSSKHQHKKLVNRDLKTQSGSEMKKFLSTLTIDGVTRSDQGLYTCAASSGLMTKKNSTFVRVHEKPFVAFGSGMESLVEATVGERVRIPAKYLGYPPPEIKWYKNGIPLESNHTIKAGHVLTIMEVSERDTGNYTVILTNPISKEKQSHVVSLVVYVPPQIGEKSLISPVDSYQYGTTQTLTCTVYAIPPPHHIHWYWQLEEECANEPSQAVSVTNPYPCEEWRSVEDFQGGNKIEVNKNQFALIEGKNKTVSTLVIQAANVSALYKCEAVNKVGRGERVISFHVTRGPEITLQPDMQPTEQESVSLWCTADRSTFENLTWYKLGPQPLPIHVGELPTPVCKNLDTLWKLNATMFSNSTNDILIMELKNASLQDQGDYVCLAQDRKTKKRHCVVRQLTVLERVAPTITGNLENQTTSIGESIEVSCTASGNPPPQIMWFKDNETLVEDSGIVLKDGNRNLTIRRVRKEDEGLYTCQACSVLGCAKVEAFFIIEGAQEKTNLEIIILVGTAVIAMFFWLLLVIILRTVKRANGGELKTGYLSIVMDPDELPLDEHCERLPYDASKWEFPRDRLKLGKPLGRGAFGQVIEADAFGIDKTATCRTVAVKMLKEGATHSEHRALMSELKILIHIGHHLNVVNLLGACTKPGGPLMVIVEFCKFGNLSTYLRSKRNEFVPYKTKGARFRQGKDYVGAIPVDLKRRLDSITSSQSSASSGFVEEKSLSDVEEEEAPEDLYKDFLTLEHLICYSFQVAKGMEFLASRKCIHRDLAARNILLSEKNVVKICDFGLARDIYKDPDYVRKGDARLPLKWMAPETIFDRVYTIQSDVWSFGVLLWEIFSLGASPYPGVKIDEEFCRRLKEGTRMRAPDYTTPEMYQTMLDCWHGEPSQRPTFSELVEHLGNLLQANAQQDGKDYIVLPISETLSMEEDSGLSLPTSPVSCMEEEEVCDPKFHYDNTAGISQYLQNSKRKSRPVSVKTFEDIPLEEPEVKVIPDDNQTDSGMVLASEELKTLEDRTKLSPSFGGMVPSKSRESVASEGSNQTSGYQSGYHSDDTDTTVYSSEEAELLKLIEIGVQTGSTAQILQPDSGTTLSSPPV
# assay name: KDR (VEGFR2) (enzymatic assay), TR-FRET
# Type: biochemical
# experimental conditions: 3 μM ATP, 120 min; pIC50 = -log IC50 (M); average if tested multiple times; read-out: VEGFR KDR pIC50 (converted)
Quick note: numbers are log10 of IC50, with M as the unit.

Record excerpt, results attached:
COc1cc(OC)cc(N(Cc2ncc[nH]2)c2ccc3ncc(-c4ccccc4)cc3c2)c1 [Compound 52]: -6.03
COc1cc(OC)cc(N(CCO)c2ccc3ncc(-c4ccn(C)c4)cc3c2)c1 [Compound 61]: -6.72
COc1cc(OC)cc(N(CCCNCC(F)(F)F)c2ccc3ncc(-c4cnn(C)c4)cc3c2)c1 [Compound 5]: -6.61

Prompt line: Query: log10 of IC50; subject: COc1cc(OC)cc(N(CCNC(C)C)c2ccc3ncc(-c4cnn(C)c4)cc3c2)c1 [Compound 1]
Response line: -7.13

Prompt line: Query: log10 of IC50; subject: COc1cc(OC)cc(N(CCNC(C)C)c2ccc3ncc(-c4ccccc4)cc3c2)c1 [Compound 51]
Response line: -6.77

Prompt line: Query: log10 of IC50; subject: COc1cc(OC)cc(N(CC#Cc2nccc(OC)n2)c2ccc3ncc(-c4cnn(C)c4)cc3c2)c1 [Compound 16]
Response line: -6.05

Prompt line: Query: log10 of IC50; subject: COc1cc(OC)cc(N(CC(O)C(F)(F)F)c2ccc3ncc(-c4cnn(C)c4)cc3c2)c1 (single isomer, unassigned) [Compound 24]
Response line: -6.54

Prompt line: Query: log10 of IC50; subject: COc1cc(OC)cc(N(CCNC(C)C)c2ccc3ncc(-c4cnn(CCO)c4)cc3c2)c1 [Compound 13]
Response line: -6.89

* * *

# system tested: Ba/F3-FGFR1-transfected cells (Homo sapiens, UniProt P11362, cells depend on it, form not given)
# Construct: other: minus IL3; 24 hours, Alamar Blue
# assay name: Ba/F3-FGFR1 (minus IL3 or plus IL3) cellular proliferation assay, Alamar Blue
# Assay type: cell-based
# experimental conditions: minus IL3, 24 hours
experimental readout: BAF3-FGFR1 (MIN IL3 pIC50)

Record excerpt, results attached:
COc1cc(OC)c(F)c(N(CCNC(C)C)c2ccc3ncc(-c4cnn(C)c4)cc3c2)c1: 8.3
COc1cc(OC)cc(N(CC2CCC(=O)N2)c2ccc3ncc(-c4cnn(C)c4)cc3c2)c1 (stereo not drawn): 5.65
COc1cc(OC)cc(N(CCO)c2ccc3ncc(-c4ccn(C)c4)cc3c2)c1: 6.02
COc1cc(OC)cc(N(Cc2ncc[nH]2)c2ccc3ncc(-c4cccnc4)cc3c2)c1: 6.36
COc1cc(OC)cc(N(CCNC(C)C)c2ccc3ncc(-c4cnn(CCS(C)(=O)=O)c4)cc3c2)c1: 7.2

Now, please, on to the next compound.
Prompt line: Query: BAF3-FGFR1 (MIN IL3 pIC50); subject: COc1cc(OC)cc(N(CCCO)c2ccc3ncc(-c4cnn(C)c4)cc3c2)c1
Response line: 6.26

* * *

# system tested: Ba/F3-FGFR4-transfected cells (Homo sapiens, UniProt P22455)
# Sequence (P22455 whole entry, change not shown): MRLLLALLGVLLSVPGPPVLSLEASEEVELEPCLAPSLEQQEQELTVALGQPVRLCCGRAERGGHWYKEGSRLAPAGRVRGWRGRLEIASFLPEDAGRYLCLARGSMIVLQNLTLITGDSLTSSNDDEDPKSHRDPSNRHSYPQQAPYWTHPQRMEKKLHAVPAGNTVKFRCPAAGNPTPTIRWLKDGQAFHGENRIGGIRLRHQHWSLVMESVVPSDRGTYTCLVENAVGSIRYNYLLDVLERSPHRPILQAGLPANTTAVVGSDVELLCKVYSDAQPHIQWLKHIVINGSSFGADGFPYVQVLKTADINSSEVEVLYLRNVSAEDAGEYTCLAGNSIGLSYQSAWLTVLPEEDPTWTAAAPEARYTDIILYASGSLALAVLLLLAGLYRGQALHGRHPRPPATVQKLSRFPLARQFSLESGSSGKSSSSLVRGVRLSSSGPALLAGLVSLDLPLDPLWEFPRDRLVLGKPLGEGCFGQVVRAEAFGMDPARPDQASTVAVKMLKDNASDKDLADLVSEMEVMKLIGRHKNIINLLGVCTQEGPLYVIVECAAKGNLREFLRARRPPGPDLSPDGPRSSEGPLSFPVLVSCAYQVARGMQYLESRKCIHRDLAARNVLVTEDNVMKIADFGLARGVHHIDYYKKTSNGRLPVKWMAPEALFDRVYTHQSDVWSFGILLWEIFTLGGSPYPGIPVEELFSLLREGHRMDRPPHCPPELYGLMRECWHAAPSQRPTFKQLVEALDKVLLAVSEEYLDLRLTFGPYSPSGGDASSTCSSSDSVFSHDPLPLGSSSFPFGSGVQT
# assay name: Ba/F3-FGFR4 cellular proliferation assay, Alamar Blue
# Assay type: cell-based
# experimental conditions: 24 hours
Listing: BAF3-FGFR 4 (pIC50) of selected compounds

COc1cc(OC)cc(N(CCCO)c2ccc3ncc(-c4cnn(C)c4)cc3c2)c1: 5.87
COc1cc(OC)cc(N(CCCN2CCCC2=O)c2ccc3ncc(-c4cnn(C)c4)cc3c2)c1: 5.63
COc1cc(OC)cc(N(CCNC(C)C)c2ccc3ncc(-c4ccccc4)cc3c2)c1: 5.87

Now, please, on to the next compound.
Prompt line: Query: BAF3-FGFR 4 (pIC50); subject: COc1cc(OC)cc(N(Cc2ncc[nH]2)c2ccc3ncc(-c4ccn(C)c4)cc3c2)c1
Response line: 6.24

* * *

Listing: melting point of selected molecules
All answers are understood in °C, so give the number only.

COc1cc(OC)cc(N(Cc2ncc[nH]2)c2ccc3ncc(-c4ccccc4)cc3c2)c1 [Compound 52]: 133

Now, please, on to the next molecule.
Prompt line: Query: melting point; subject: COc1cc(OC)cc(N(CC2CCN(c3nccc(OC)n3)C2)c2ccc3ncc(-c4cnn(C)c4)cc3c2)c1 (stereo not shown) [Compound 7]
Response line: 132

* * *

# system tested: Ba/F3-FGFR3-transfected cells (Homo sapiens, UniProt P22607, cells depend on it, form not given)
# Construct: BAF3-FGFR3 (MIN IL3 Alamar Blue- pIC50); other: minus IL3; 24 hours, Alamar Blue
# Sequence (P22607 whole entry, change not shown): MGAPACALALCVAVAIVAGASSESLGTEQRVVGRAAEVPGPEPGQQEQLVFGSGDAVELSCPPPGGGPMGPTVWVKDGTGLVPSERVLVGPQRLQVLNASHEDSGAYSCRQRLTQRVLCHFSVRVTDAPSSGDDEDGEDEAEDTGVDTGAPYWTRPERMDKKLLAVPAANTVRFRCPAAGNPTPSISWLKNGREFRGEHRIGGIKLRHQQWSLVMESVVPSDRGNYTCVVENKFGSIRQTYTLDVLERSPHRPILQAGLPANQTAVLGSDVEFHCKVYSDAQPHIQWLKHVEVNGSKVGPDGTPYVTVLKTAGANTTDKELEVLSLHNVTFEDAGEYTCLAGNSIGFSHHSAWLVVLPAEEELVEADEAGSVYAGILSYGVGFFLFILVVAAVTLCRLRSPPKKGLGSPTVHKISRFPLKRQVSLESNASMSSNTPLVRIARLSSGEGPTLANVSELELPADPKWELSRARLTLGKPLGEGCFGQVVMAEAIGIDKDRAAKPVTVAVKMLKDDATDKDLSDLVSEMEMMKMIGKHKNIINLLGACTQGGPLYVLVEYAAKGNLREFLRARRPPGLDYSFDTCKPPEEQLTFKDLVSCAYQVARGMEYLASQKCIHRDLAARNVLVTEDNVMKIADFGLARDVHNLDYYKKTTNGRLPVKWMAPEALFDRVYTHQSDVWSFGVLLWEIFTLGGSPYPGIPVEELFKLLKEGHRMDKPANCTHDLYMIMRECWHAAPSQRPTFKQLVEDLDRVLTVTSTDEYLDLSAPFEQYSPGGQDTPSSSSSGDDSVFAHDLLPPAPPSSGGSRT
# assay name: Ba/F3-FGFR3 (minus IL3 or plus IL3) cellular proliferation assay, Alamar Blue
# Type: cell-based
# experimental conditions: minus IL3; 24 hours, Alamar Blue
experimental readout: BAF3-FGFR3 (MIN IL3 Alamar Blue- pIC50)
Please state the value as a number alone, without comment.

Record excerpt, results attached:
COc1cc(OC)cc(N(CCNC(C)C)c2ccc3ncc(-c4cnn(CCO)c4)cc3c2)c1: 7
COc1cc(OC)cc(N(CCCN)c2ccc3ncc(-c4cnn(C)c4)cc3c2)c1: 6.97
COc1cc(OC)cc(N(Cc2ncccn2)c2ccc3ncc(-c4cnn(C)c4)cc3c2)c1: 6.14
COc1cc(OC)cc(N(CC(O)C(F)(F)F)c2ccc3ncc(-c4cnn(C)c4)cc3c2)c1 (single isomer, unassigned) [Compound 25]: 6.76
COc1cc(OC)cc(N(Cc2nccn2S(=O)(=O)N(C)C)c2ccc3ncc(-c4ccncc4)cc3c2)c1: 5.57

Prompt line: Query: BAF3-FGFR3 (MIN IL3 Alamar Blue- pIC50); subject: COc1cc(OC)cc(N(Cc2ncc[nH]2)c2ccc3ncc(-c4ccn(C)c4)cc3c2)c1
Response line: 6.75

Prompt line: Query: BAF3-FGFR3 (MIN IL3 Alamar Blue- pIC50); subject: COc1cc(OC)cc(N(CCNC(C)C)c2ccc3ncc(-c4cnn(C)c4)cc3c2)c1
Response line: 7.555

Prompt line: Query: BAF3-FGFR3 (MIN IL3 Alamar Blue- pIC50); subject: COc1cc(OC)cc(N(Cc2ncc[nH]2)c2ccc3ncc(-c4cccnc4)cc3c2)c1
Response line: 6.50

Prompt line: Query: BAF3-FGFR3 (MIN IL3 Alamar Blue- pIC50); subject: COc1cc(OC)c(F)c(N(CCNC(C)C)c2ccc3ncc(-c4cnn(C)c4)cc3c2)c1F
Response line: 8.25

Prompt line: Query: BAF3-FGFR3 (MIN IL3 Alamar Blue- pIC50); subject: COc1cc(OC)cc(N(CCNC(C)C)c2ccc3ncc(-c4ccccc4)cc3c2)c1
Response line: 5.82

* * *

# system tested: FGFR1 (h) (Homo sapiens, UniProt P11362)
# Sequence (P11362 22-822): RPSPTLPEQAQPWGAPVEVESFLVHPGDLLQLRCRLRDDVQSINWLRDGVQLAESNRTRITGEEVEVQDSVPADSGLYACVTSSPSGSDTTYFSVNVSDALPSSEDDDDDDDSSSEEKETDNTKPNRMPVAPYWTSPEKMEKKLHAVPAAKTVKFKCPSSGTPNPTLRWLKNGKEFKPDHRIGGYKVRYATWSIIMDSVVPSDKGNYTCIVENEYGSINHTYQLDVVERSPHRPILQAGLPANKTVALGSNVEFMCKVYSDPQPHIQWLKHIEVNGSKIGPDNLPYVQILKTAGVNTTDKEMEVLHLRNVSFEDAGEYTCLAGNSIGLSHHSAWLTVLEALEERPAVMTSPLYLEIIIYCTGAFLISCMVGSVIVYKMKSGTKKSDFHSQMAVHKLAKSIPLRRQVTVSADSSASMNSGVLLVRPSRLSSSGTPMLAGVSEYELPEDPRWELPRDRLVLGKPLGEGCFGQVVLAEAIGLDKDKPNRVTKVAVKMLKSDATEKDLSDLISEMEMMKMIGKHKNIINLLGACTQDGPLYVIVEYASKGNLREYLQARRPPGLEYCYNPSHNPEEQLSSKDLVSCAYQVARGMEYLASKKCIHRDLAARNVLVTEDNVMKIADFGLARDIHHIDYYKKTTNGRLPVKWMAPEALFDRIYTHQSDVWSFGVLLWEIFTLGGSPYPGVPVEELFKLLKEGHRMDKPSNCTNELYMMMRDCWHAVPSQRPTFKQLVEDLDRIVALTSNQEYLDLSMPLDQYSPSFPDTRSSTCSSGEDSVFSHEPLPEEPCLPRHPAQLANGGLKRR
# assay name: FGFR1 (enzymatic assay), TR-FRET
# Type: biochemical
# experimental conditions: FGFR 1 pIC50, 5 μM ATP, 60 min; pIC50 = -log IC50 (M); average if tested multiple times
Listing: IC50 of selected compounds
All answers are understood in M, so give the number only.

Record excerpt, results attached:
COc1cc(OC)cc(N(CCCN2CCCC2CNS(=O)(=O)C(F)(F)F)c2ccc3ncc(-c4cnn(C)c4)cc3c2)c1 (centres unmarked): 1.17e-09
COc1cc(OC)cc(N(CC#Cc2nccc(OC)n2)c2ccc3ncc(-c4cnn(C)c4)cc3c2)c1: 9.33e-09

Prompt line: Query: IC50; subject: COc1cc(OC)cc(N(Cc2ncc[nH]2)c2ccc3ncc(-c4cccnc4)cc3c2)c1
Response line: 4.68e-09

Prompt line: Query: IC50; subject: COc1cc(OC)cc(N(CCO)c2ccc3ncc(-c4ccccc4)cc3c2)c1
Response line: 6.92e-08

Prompt line: Query: IC50; subject: COc1cc(OC)cc(N(CCO)c2ccc3ncc(N4CCOCC4)cc3c2)c1
Response line: 3.8e-07

Prompt line: Query: IC50; subject: C#CCN(c1cc(OC)cc(OC)c1)c1ccc2ncc(-c3cnn(C)c3)cc2c1
Response line: 1.51e-08

Prompt line: Query: IC50; subject: COc1cc(OC)cc(N(CCNC(C)C)c2ccc3ncc(-c4ccccc4)cc3c2)c1
Response line: 2.75e-09

Prompt line: Query: IC50; subject: COc1cc(OC)cc(N(Cc2nccn2S(=O)(=O)N(C)C)c2ccc3ncc(-c4cnn(C)c4)cc3c2)c1
Response line: 5.62e-09
